Origin of measurements: patent US20090221819A1

test: absorption and photoluminescence characteristics (absorption and fluorescence emission spectra, quantum efficiency, lifetime); assay type: physicochemical; conditions: in toluene
Property: τ, fluorescence lifetime (ns)

>>> test_result("CCC1=C(C)C2=C(c3ccc(-c4cn(-c5ccc(C#Cc6ccc(N(c7ccc(C#Cc8ccc(-n9cc(-c%10ccc(C%11=C%12C(C)=C(CC)C(C)=[N+]%12[B-](F)(F)n%12c(C)c(CC)c(C)c%12%11)cc%10)nn9)cc8)cc7)c7ccc(C#Cc8ccc(-n9cc(-c%10ccc(C%11=C%12C(C)=C(CC)C(C)=[N+]%12[B-](F)(F)n%12c(C)c(CC)c(C)c%12%11)cc%10)nn9)cc8)cc7)cc6)cc5)nn4)cc3)c3c(C)c(CC)c(C)n3[B-](F)(F)[N+]2=C1C [MC263]")
4.36
>>> test_result("CCC1=C(C)C2=C(c3ccc(-c4cc(-c5ccc(C6=C7C(C)=C(CC)C(C)=[N+]7[B-](F)(F)n7c(C)c(CC)c(C)c76)cc5)cc(-c5ccc(C6=C7C(C)=C(CC)C(C)=[N+]7[B-](F)(F)n7c(C)c(CC)c(C)c76)cc5)c4)cc3)c3c(C)c(CC)c(C)n3[B-](F)(F)[N+]2=C1C [LP52]")
4.78
>>> test_result("CCC1=C(C)C2=C(c3ccc(C#Cc4ccc(N(c5ccc(C#Cc6ccc(C7=C8C(C)=C(CC)C(C)=[N+]8[B-](F)(F)n8c(C)c(CC)c(C)c87)cc6)cc5)c5ccc(C#Cc6ccc(C7=C8C(C)=C(CC)C(C)=[N+]8[B-](F)(F)n8c(C)c(CC)c(C)c87)cc6)cc5)cc4)cc3)c3c(C)c(CC)c(C)n3[B-](F)(F)[N+]2=C1C [CL64]")
4.02
>>> test_result("CCC1=C(C)C2=C(c3ccc(C#Cc4ccc(-c5cc(-c6ccc(C#Cc7ccc(C8=C9C(C)=C(CC)C(C)=[N+]9[B-](F)(F)n9c(C)c(CC)c(C)c98)cc7)cc6)cc(-c6ccc(C#Cc7ccc(C8=C9C(C)=C(CC)C(C)=[N+]9[B-](F)(F)n9c(C)c(CC)c(C)c98)cc7)cc6)c5)cc4)cc3)c3c(C)c(CC)c(C)n3[B-](F)(F)[N+]2=C1C [MC237]")
3.95
>>> test_result("CCC1=C(C)C2=C(c3ccc(-c4ccc(C5=C6C(C)=C(CC)C(C)=[N+]6[B-](F)(F)n6c(C)c(CC)c(C)c65)cc4)cc3)c3c(C)c(CC)c(C)n3[B-](F)(F)[N+]2=C1C [LP42]")
4.76
